# credit: paper PMC11302688

# experimentalTarget: ATR-ATRIP (Homo sapiens)
# Construct: His (C); purchased Eurofins DiscoverX 14–953
# methodNotes: Reconstituted ATR kinase assay (western blot of phosphorylation targets)
# Assay type: biochemical
# testSettings: fully reconstituted ATR kinase reaction; read-out: IC50 for ATR-dependent RPA32 Thr21 phosphorylation
pIC50: −log10 of the molar value.
attributeMeasured: pIC50

In plain terms, CCOc1ccc2cc(C3CC(c4ccc(I)cc4)=NN3C(=O)CCCC(=O)O)c(Cl)nc2c1 (stereo not shown) has a documented pIC50 of 5.00 to 5.30

---

# experimentalTarget: ATR-ATRIP (Homo sapiens)
# Construct: His (C); purchased Eurofins DiscoverX 14–953
# methodNotes: Reconstituted ATR kinase assay (western blot of phosphorylation targets)
# Format: biochemical
# testSettings: fully reconstituted ATR kinase reaction; read-out: IC50 for ATR-dependent p53 Ser15 phosphorylation
attributeMeasured: IC50

In plain terms, CCOc1ccc2cc(C3CC(c4ccc(I)cc4)=NN3C(=O)CCCC(=O)O)c(Cl)nc2c1 (stereo not shown) has a documented IC50 of 5 to 10 µM

---

# experimentalTarget: ATR-ATRIP (Homo sapiens, UniProt P27694)
# Construct: His (C); purchased Eurofins DiscoverX 14–953
# Sequence (P27694 whole entry): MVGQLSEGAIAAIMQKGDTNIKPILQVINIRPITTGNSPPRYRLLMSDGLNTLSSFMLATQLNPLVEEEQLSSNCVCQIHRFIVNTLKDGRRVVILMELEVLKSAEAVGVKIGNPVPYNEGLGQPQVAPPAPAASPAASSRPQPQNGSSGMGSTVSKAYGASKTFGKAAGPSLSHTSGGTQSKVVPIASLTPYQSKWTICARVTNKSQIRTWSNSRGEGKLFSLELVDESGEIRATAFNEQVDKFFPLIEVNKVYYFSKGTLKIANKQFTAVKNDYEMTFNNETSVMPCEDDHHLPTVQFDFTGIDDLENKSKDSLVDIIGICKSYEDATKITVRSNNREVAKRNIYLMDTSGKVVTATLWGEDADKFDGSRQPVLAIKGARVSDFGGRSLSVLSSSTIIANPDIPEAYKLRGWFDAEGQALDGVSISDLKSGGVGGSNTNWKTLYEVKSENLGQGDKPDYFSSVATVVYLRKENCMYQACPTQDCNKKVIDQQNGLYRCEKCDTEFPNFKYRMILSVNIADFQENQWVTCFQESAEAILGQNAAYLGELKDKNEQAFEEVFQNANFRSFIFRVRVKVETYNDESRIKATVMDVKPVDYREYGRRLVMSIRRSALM
# Sequence (P15927 whole entry partner): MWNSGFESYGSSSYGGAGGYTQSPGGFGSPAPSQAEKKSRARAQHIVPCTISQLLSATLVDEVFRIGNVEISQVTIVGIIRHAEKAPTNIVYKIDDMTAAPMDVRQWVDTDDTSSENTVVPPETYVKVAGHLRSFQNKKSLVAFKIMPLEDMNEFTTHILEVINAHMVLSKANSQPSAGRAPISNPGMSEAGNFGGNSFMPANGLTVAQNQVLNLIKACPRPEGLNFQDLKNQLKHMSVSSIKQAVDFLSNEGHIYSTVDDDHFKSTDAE
# Sequence (P35244 whole entry partner): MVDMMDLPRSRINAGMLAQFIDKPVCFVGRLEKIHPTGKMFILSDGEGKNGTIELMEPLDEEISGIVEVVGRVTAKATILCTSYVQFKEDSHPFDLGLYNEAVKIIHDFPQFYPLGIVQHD
# methodNotes: Reconstituted ATR kinase assay (western blot of phosphorylation targets)
# Type: biochemical
# testSettings: fully reconstituted ATR kinase reaction; read-out: IC50 for ATR-dependent RPA32 Ser33 phosphorylation
pIC50: −log10 of the molar value.
attributeMeasured: pIC50

In plain terms, CCOc1ccc2cc(C3CC(c4ccc(I)cc4)=NN3C(=O)CCCC(=O)O)c(Cl)nc2c1 (stereo not shown) [TDRL-551] has a documented pIC50 of 5.00 to 5.30
